# Protocol text: NCI Yeast Anticancer Drug Screen. Data for the rad52 strain (AID 147)
# Condition summary: S. cerevisiae rad52 mutant growth inhibition; at 33.0 µM; stronger effect = higher value
# Procedure: Growth inhibition of yeast strains with defined genetic alterations is measured as a screen for potential anti-cancer activity. Selected strains with alterations in DNA damage repair or cell cycle control were exposed to compounds and growth inhibition was measured relative to vehicle treated controls. The strain used in this assay is rad52
This is part of a sample that, as a whole, favours compounds with a hit. Of some 79,000 tested, about 15% had one in any assay.
Given measured growth inhibition, output y if it is greater than or equal to 90% and n if not.

> print(dat)
                                   compound  class.assignment
1                       Oc1c(Br)cc(Br)cc1Br                 n
2  C/C(CCl)=N/NC1=NC(c2ccccc2Cl)P(=O)(NCCCNP2(=O)SC(N/N=C(/C)CCl)=NC2c2ccccc2Cl)S1 (stereo not drawn)                 n
3  CCC1(O)C(=O)OCc2c1cc1n(c2=O)Cc2c-1nc1ccccc1c2OC (stereo not drawn)                 y
4                               CCN(CC)CCBr                 n
5  CN(C)CCSC1=Nc2ccc(Cl)cc2C(c2ccccc2Cl)=NC1                 n
6  COC(=O)C1=C(C(=O)OC)C2OC1c1cc3ccccc3cc12                 y
7                            Br[Se]c1ccccn1                 y
8  COc1cccc2c1C(=O)c1c(O)c3c(c(O)c1C2=O)C[C@@](O)(C(C)=O)C[C@@H]3OC1CC(N)C(OC2CC(O)C(O)C(C)O2)C(C)O1 (stereo partly drawn)                 n

// provenance: PubChem BioAssay (NCI)
